Conditions: Day 2; G10-G16 groups; single IP 400 mg/kg; Mean±SEM
Method: To determine the growth inhibition effect and toxicity of the cytidine derivative samples of the present invention on the transplanted tumor of nude mice bearing colon cancer HCT-116. […] All clinical symptoms of each animal should be recorded at the beginning of the test and during the test. […] The data were expressed as Mean±SEM unless specially provided; Non-pairing T test was performed for the data between the two groups. […]
measurement_label: Weight change rate, Day 2
I'd appreciate it if you included the unit after the number.

1. CCCCOC(=O)Nc1nc(=O)n(C2OC(COC(=O)COc3nc(Cl)c(Cl)cc3Cl)C(O)C2(F)F)cc1-c1cn(Cc2ccccc2)nn1 (stereo not drawn)	−11.24 ± 1.52 %
2. O=C(COc1nc(Cl)c(Cl)cc1Cl)OC[C@H]1O[C@@H](n2cc(Br)c(NC(=O)OCc3ccccc3)nc2=O)C(F)(F)C1O (stereo partly drawn)	−0.85 ± 0.43%
3. O=C(COc1nc(Cl)c(Cl)cc1Cl)OCC1OC(n2cc(-c3cn(Cc4ccccc4)nn3)c(NC(=O)OCc3ccc([N+](=O)[O-])cc3)nc2=O)C(F)(F)C1O (stereo not drawn)	−6.78 ± 0.95 %

Measured Weight change rate, Day 2 of CCCCOC(=O)Nc1nc(=O)n([C@@H]2O[C@H](COC(=O)Cn3cnc([N+](=O)[O-])c3)C(O)C2(F)F)cc1I (stereo partly drawn) : −3.15 ± 0.93%

Measured Weight change rate, Day 2 of CCCCOC(=O)Nc1nc(=O)n(C2OC(COC(=O)COc3nc(Cl)c(Cl)cc3Cl)C(O)C2(F)F)cc1Br (stereo not drawn) : −0.79 ± 0.84%

Measured Weight change rate, Day 2 of CCCCOC(=O)Nc1nc(=O)n(C2OC(COC(=O)COc3nc(Cl)c(Cl)cc3Cl)C(O)C2(F)F)cc1I (stereo not drawn) : −6.03 ± 0.57 %
